These entries and their values trace back to the array DNA melting data of Ke et al. (doi:10.1101/2024.01.08.574731).

Tm values for the sequences below.
Assay explanation: melting temperature; fluorescence melt of hairpins on a sequencing array, two-state fit, raised by 9.35 °C to match UV melts
Applied conditions: sodium 0.088 M
Field format: number, assumed °C, no unit text.

Here are 5 sequences together with their reported answers.
>  <Sequence entry>
GGGTGAGGAAACTCGCTC (.(.(((....))).).)

>  <Tm / °C>
38.1

$$$$
>  <Sequence entry>
GGACTAGGAAACTGGTTC (.((.((....)).)).)

>  <Tm / °C>
29.8

$$$$
>  <Sequence entry>
TTTGCGAAAGCAAA (((((....)))))

>  <Tm / °C>
54.3

$$$$
>  <Sequence entry>
GATCTCGGTGGAGATC ((((((....))))))

>  <Tm / °C>
68.6

$$$$
>  <Sequence entry>
GCTTGTGAAAACAAGC ((((((....))))))

>  <Tm / °C>
63.5

$$$$

I would be grateful if you could share the reported Tm for GATCTCAGTAGAGATC ((((((....)))))) .
54.1
